Origin of values: ChEMBL document CHEMBL2034838

# Test system: Mus musculus
# protocol: Hepatotoxicity in Swiss albino mouse assessed as change in liver alkaline phosphatase level at 25 mg/kg/day for 15 days
# Assay type: toxicity, organism-based
# test conditions: in vivo, 360 h
experimental endpoint: Activity

Some compounds with known Activity results, for comparison:
INSERT INTO assay_data (record_smiles, experimental_endpoint, assay_value) VALUES
  ('CCc1nc2ccc(Br)cc2c(=O)n1-c1nc2c(OC)cccc2s1', 'Activity', 'Non-toxic'),
  ('CCOc1cccc2sc(-n3c(CC)nc4ccc(Br)cc4c3=O)nc12', 'Activity', 'Non-toxic'),
  ('CCc1nc2ccc(Br)cc2c(=O)n1-c1nc2ccc(OC)cc2s1', 'Activity', 'Non-toxic'),
  ('CCc1nc2ccc(Br)cc2c(=O)n1-c1nc2cc(Cl)ccc2s1', 'Activity', 'Non-toxic');

Now for a further compound.
*Q* If you can, please state the reported Activity value of CCc1nc2ccc(Br)cc2c(=O)n1-c1nc2ccccc2s1 .
*A* Non-toxic
